# Study target: BChE (Homo sapiens)
# Measurement notes: biochemical
# Protocol conditions: log transformation of the observed IC50; read-out: Observed log(IC50, μM), BChE (converted)
Parameter measured: IC50 (µM)
Give just the numeric value; µM need not be written.

Compound | Parameter measured | Experimental result
CN1CC(c2ccccc2)C2(CC(=O)N(c3ccc(Cl)cc3)C2=O)C12C(=O)Nc1ccc(Cl)cc12 (centres unmarked) [Compound 8i] | IC50 | 35.1
CN1CC(c2ccccc2)C2(CC(=O)N(c3ccccc3)C2=O)C12C(=O)Nc1ccc(Cl)cc12 (centres unmarked) [Compound 8b] | IC50 | 42.5
COc1ccc(C2CN(C)C3(C(=O)Nc4ccc(OC)cc43)C23CC(=O)N(c2ccccc2)C3=O)cc1 (centres unmarked) [Compound 8g] | IC50 | 4.74
CN1CC(c2ccccc2)C2(CC(=O)N(c3ccccc3)C2=O)C12C(=O)Nc1ccccc12 (centres unmarked) [Compound 8a] | IC50 | 81.8

q: Request the reported IC50 associated with CN1CC(c2ccc(Cl)cc2)C2(CC(=O)N(c3ccc(Cl)cc3)C2=O)C12C(=O)Nc1ccccc12 (centres unmarked) [Compound 8j]
a: 13.6

----------
# Study target: UniProt P06276
# Measurement notes: biochemical
# Protocol conditions: log transformation of the observed IC50; read-out: Observed log(IC50, μM), BChE (converted)
// NB: equality with 20 µM counts as no; only IC50 strictly below is yes

q: Lab note: IC50 threshold 20 µM. Does this molecule come in strictly under it? CN1CC(c2ccc(Cl)cc2)C2(CC(=O)N(c3ccc(Cl)cc3)C2=O)C12C(=O)Nc1ccc(Cl)cc12 (stereo not shown)
a: yes

----------
The following compounds are listed with their measured SI(BChE/AChE) values.
# Study target: BChE (Homo sapiens, UniProt P06276)
# Sequence (P06276 29-602): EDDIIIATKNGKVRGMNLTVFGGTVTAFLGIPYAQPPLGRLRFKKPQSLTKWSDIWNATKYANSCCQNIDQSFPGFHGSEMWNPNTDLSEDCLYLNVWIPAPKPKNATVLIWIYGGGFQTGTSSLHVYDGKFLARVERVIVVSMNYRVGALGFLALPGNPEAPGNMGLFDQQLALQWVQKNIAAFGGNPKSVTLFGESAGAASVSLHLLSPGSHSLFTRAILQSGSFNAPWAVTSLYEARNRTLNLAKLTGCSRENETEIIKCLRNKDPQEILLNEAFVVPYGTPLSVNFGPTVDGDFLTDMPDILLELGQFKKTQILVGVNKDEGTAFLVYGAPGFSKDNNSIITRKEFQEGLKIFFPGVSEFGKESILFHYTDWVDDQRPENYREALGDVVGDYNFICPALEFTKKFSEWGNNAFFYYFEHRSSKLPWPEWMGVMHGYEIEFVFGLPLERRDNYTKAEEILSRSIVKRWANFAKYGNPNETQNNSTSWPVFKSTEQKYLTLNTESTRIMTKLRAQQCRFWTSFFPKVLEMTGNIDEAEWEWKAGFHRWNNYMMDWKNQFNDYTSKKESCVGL
# Measurement notes: biochemical
# Protocol conditions: selectivity index BChE/AChE
Please state the value as a number alone, without comment.

q: Kindly state the measured SI(BChE/AChE) obtained for COc1ccc2c(c1)C1(C(=O)N2)N(C)CC(c2ccccc2)C12CC(=O)N(c1ccccc1)C2=O (stereo not shown) [Compound 8c] with BChE (Homo sapiens, UniProt P06276).
a: 0.70

q: Lab request: please report SI(BChE/AChE) under test system BChE (Homo sapiens, UniProt P06276) for COc1ccc2c(c1)C1(C(=O)N2)N(C)CC(c2ccc(Cl)cc2)C12CC(=O)N(c1ccccc1)C2=O (stereo not shown) [Compound 8e]
a: 1.68

q: Given the entry COc1ccc2c(c1)C1(C(=O)N2)N(C)CC(c2ccc(Cl)cc2)C12CC(=O)N(c1ccc(Cl)cc1)C2=O (stereo not shown) [Compound 8l] , what SI(BChE/AChE) was observed with BChE (Homo sapiens, UniProt P06276)?
a: 1.62

q: Notebook: pull reported SI(BChE/AChE) for BChE (Homo sapiens, UniProt P06276), entry CN1CC(c2ccc(Cl)cc2)C2(CC(=O)N(c3ccccc3)C2=O)C12C(=O)Nc1ccc(Cl)cc12 (stereo not shown) [Compound 8d]
a: 0.88

----------
# Study target: AChE (Homo sapiens, UniProt P22303)
# Sequence (P22303 32-614): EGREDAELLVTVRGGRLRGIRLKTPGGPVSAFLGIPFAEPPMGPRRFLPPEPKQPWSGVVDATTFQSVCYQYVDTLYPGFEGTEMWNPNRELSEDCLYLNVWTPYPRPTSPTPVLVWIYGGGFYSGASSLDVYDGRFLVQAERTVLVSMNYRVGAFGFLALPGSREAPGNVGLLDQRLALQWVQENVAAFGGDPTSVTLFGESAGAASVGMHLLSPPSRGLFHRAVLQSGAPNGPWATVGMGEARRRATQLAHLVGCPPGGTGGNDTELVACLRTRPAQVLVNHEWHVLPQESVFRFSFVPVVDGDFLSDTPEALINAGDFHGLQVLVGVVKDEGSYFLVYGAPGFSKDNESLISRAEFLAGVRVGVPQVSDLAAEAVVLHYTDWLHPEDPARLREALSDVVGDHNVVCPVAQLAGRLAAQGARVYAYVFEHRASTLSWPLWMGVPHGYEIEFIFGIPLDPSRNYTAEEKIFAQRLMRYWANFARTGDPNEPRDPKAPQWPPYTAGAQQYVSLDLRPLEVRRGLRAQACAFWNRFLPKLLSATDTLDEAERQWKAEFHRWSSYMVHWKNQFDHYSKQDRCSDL
# Measurement notes: biochemical
# Protocol conditions: log transformation of the observed IC50; read-out: Observed log(IC50, μM), AChE (converted)
Parameter measured: IC50 (µM)
Report as a plain number; the unit µM is understood.

Compound | Parameter measured | Unit annotation | Experimental result
COc1ccc2c(c1)C1(C(=O)N2)N(C)CC(c2ccc(Cl)cc2)C12CC(=O)N(c1ccccc1)C2=O (centres unmarked) [Compound 8e] | IC50 | µM | 3.35

q: Param item = COc1ccc2c(c1)C1(C(=O)N2)N(C)CC(c2ccccc2)C12CC(=O)N(c1ccccc1)C2=O (centres unmarked) [Compound 8c] ; retrieve measured IC50.
a: 103

q: Which value of IC50 has been reported for CN1CC(c2ccccc2)C2(CC(=O)N(c3ccccc3)C2=O)C12C(=O)Nc1ccccc12 (centres unmarked) [Compound 8a] in the records?
a: 117

q: Param item = CN1CC(c2ccccc2)C2(CC(=O)N(c3ccc(Cl)cc3)C2=O)C12C(=O)Nc1ccc(Cl)cc12 (centres unmarked) [Compound 8i] ; retrieve measured IC50.
a: 39.4

q: Which IC50 value is on record for CN1CC(c2ccccc2)C2(CC(=O)N(c3ccc(Cl)cc3)C2=O)C12C(=O)Nc1ccccc12 (centres unmarked) [Compound 8h] ?
a: 6.27

----------
# Study target: BChE (Homo sapiens, UniProt P06276)
# Measurement notes: biochemical
# Protocol conditions: 10 min incubation at 25 °C, read at 405 nm; read-out: IC50 of BChE (μM) ± SD
# IC50 annotations
Express your answer in µM, writing the number without its unit.

These recorded examples may help you get a feel for the data.
Compound | IC50 / µM
COc1ccc2c(c1)C1(C(=O)N2)N(C)CC(c2ccccc2)C12CC(=O)N(c1ccccc1)C2=O (centres unmarked) | 71.7
CN1CC(c2ccc(Cl)cc2)C2(CC(=O)N(c3ccc(Cl)cc3)C2=O)C12C(=O)Nc1ccc(Cl)cc12 (centres unmarked) | 10.2
CN1CC(c2ccc(Cl)cc2)C2(CC(=O)N(c3ccccc3)C2=O)C12C(=O)Nc1ccc(Cl)cc12 (centres unmarked) | 21.3
CN1CC(c2ccccc2)C2(CC(=O)N(c3ccc(Cl)cc3)C2=O)C12C(=O)Nc1ccc(Cl)cc12 (centres unmarked) | 35.1
COc1ccc(C2CN(C)C3(C(=O)Nc4ccc(Cl)cc43)C23CC(=O)N(c2ccccc2)C3=O)cc1 (centres unmarked) | 20.1
COc1ccc2c(c1)C1(C(=O)N2)N(C)CC(c2ccc(Cl)cc2)C12CC(=O)N(c1ccc(Cl)cc1)C2=O (centres unmarked) | 35.5
CN1CC(c2ccccc2)C2(CC(=O)N(c3ccccc3)C2=O)C12C(=O)Nc1ccccc12 (centres unmarked) | 81.8

With those in mind, consider the next compound.
q: Entry CN1CC(c2ccc(Cl)cc2)C2(CC(=O)N(c3ccc(Cl)cc3)C2=O)C12C(=O)Nc1ccccc12 (centres unmarked) has what IC50?
a: 13.6

----------
# Study target: AChE (Homo sapiens)
# Measurement notes: biochemical
# Protocol conditions: 10 min incubation at 25 °C, read at 405 nm; read-out: IC50 of AChE (μM) ± SD
IC50 for assorted compounds
Give just the numeric value; µM need not be written.

Example cases with answers are listed next.
Compound | Study target | IC50, µM
CN1CC(c2ccccc2)C2(CC(=O)N(c3ccc(Cl)cc3)C2=O)C12C(=O)Nc1ccc(Cl)cc12 (stereo not drawn) [Compound 8i] | AChE (Homo sapiens) | 39.4
CN1CC(c2ccc(Cl)cc2)C2(CC(=O)N(c3ccc(Cl)cc3)C2=O)C12C(=O)Nc1ccc(Cl)cc12 (stereo not drawn) [Compound 8k] | AChE (Homo sapiens) | 13.9
COc1ccc2c(c1)C1(C(=O)N2)N(C)CC(c2ccccc2)C12CC(=O)N(c1ccccc1)C2=O (stereo not drawn) [Compound 8c] | AChE (Homo sapiens) | 103

q: Fill in the blank: the reported IC50 of CN1CC(c2ccccc2)C2(CC(=O)N(c3ccccc3)C2=O)C12C(=O)Nc1ccc(Cl)cc12 (stereo not drawn) [Compound 8b] is ____.
a: 13.6

q: If you can, please state the reported IC50 value of COc1ccc(C2CN(C)C3(C(=O)Nc4ccc(Cl)cc43)C23CC(=O)N(c2ccccc2)C3=O)cc1 (stereo not drawn) [Compound 8f] .
a: 12.3

q: Which IC50 value belongs to CN1CC(c2ccc(Cl)cc2)C2(CC(=O)N(c3ccc(Cl)cc3)C2=O)C12C(=O)Nc1ccccc12 (stereo not drawn) [Compound 8j] ?
a: 21

q: Given COc1ccc2c(c1)C1(C(=O)N2)N(C)CC(c2ccc(Cl)cc2)C12CC(=O)N(c1ccc(Cl)cc1)C2=O (stereo not drawn) [Compound 8l] , state its recorded IC50.
a: 22

q: Which measured IC50 value corresponds to CN1CC(c2ccc(Cl)cc2)C2(CC(=O)N(c3ccccc3)C2=O)C12C(=O)Nc1ccc(Cl)cc12 (stereo not drawn) [Compound 8d] ?
a: 24.3

q: Can you look up the measured IC50 of CN1CC(c2ccccc2)C2(CC(=O)N(c3ccccc3)C2=O)C12C(=O)Nc1ccccc12 (stereo not drawn) [Compound 8a] for me?
a: 117

----------
# Study target: AChE (Homo sapiens, UniProt P22303)
# Measurement notes: biochemical
# Protocol conditions: log transformation of the observed IC50; read-out: Observed log(IC50, μM), AChE (converted)
# IC50 annotations
Give just the numeric value; µM need not be written.

q: What does the data say about its IC50? Entry: COc1ccc(C2CN(C)C3(C(=O)Nc4ccc(Cl)cc43)C23CC(=O)N(c2ccccc2)C3=O)cc1 (stereo not shown)
a: 12.3

q: For CN1CC(c2ccccc2)C2(CC(=O)N(c3ccccc3)C2=O)C12C(=O)Nc1ccc(Cl)cc12 (stereo not shown) , what is its reported IC50?
a: 13.6

q: Which IC50 reading was recorded for the compound CN1CC(c2ccc(Cl)cc2)C2(CC(=O)N(c3ccc(Cl)cc3)C2=O)C12C(=O)Nc1ccc(Cl)cc12 (stereo not shown) ?
a: 13.9

q: Name the reported IC50 value associated with the compound COc1ccc(C2CN(C)C3(C(=O)Nc4ccc(OC)cc43)C23CC(=O)N(c2ccccc2)C3=O)cc1 (stereo not shown)
a: 3.15

# credit: paper PMC9054546
